- assay_notes: A quantitative high throughput screen for small molecules that induce DNA re-replication in MCF 10a normal breast cells. Further: nearly all actives have a fitted effect of over 50% in size. Further: potency means the concentration at half of the fitted maximal effect.
- applied_conditions: MCF 10A DNA re-replication, Hoechst nuclear intensity, 48 h; series mostly up to 46.1 µM
In all, about 350,000 compounds went through this assay and about 9,900 (2.8%) were called active. About 15% were inconclusive and are not listed. The sample as a whole holds a higher share of actives than the screen did.

{"columns": ["compound", "Potency"],
 "data": [
  ["O=S(=O)(NCc1ccccn1)c1ccc(F)cc1", "inactive"],
  ["CC1CC(C)CN(CC(=O)N2c3ccccc3CCc3ccccc32)C1 (stereo unspecified)", "inactive"],
  ["CCCCNC(=O)CCn1c(=S)[nH]c2cc3c(cc2c1=O)OCO3", "inactive"],
  ["CC1C(C)N(C(=O)CCl)c2ccccc2N1C(=O)CCl (stereo unspecified)", "7.31 µM (active)"],
  ["O=S(=O)(NCCOc1cccc2cccnc12)c1ccc(F)cc1", "10.3 µM (active)"],
  ["CC(C)Cc1nnc(N)s1", "inactive"],
  ["CC(=O)Oc1ccc(N(C(C)=O)S(=O)(=O)c2ccc3ccccc3c2)cc1Br", "13 µM (active)"],
  ["CC1C(=O)N(Cc2ccccc2)c2ccccc2N1C(=O)c1ccccc1 (stereo unspecified)", "inactive"],
  ["COc1ccc(Cn2c(=S)[nH]c3cc(C(=O)NCCCN4CCOCC4)ccc3c2=O)cc1", "inactive"],
  ["CN(c1ccc(OCC(=O)O)cc1)S(=O)(=O)c1ccc2ccccc2c1", "inactive"],
  ["O=S(=O)(NCCc1ccc(F)cc1)c1cccc2cccnc12", "inactive"]
]}

====

- assay_notes: A quantitative high throughput screen for small molecules that induce DNA re-replication in MCF 10a normal breast cells. Further: nearly all actives have a fitted effect of over 50% in size.
- applied_conditions: MCF 10A DNA re-replication, Hoechst nuclear intensity, 48 h; series mostly up to 46.1 µM
Screen size: about 350,000 compounds; about 9,900 (2.8%) were called active. Not shown: some 15% with an inconclusive outcome. Calls come from the whole dose curve; as a rule, active = well fitted activation curve with a large enough effect; inconclusive = small, poorly fitted or top-dose-only effect; inactive = no such curve, though single readings can be large or run the other way. Shown is part of a subset that was picked to be rich in actives.
Possible outcomes: active, inactive

{"columns": ["compound", "label_value"],
 "data": [
  ["CC(OC(=O)c1cc2ccccc2[nH]1)C(=O)N(C)c1ccccc1 (stereo not given)", "inactive"],
  ["Cc1ccc(/C=N/NC(=O)c2sccc2OCc2ccc(F)cc2)cc1", "active"],
  ["CS(=O)(=O)c1ccc(C(=O)NNC(=O)c2cccs2)cc1", "inactive"],
  ["Cc1ccc(NC(=O)C(C)OC(=O)C2CC3CCCC(C2)C3=O)cc1S(=O)(=O)N1CCOCC1 (stereo not given)", "inactive"],
  ["O=C(COC(=O)c1ccc(F)cc1)Nc1ccc2c(c1)OCO2", "inactive"],
  ["Cc1c(Cl)cnc(NC(=O)COC(=O)C2CCCC2)c1Cl", "inactive"],
  ["Cc1csc(NC(=O)c2ccc(-c3ccc(Cl)cc3Cl)o2)n1", "active"],
  ["O=C(Nc1cccc2ncccc12)c1ccc(-c2ccc(Cl)cc2Cl)o1", "inactive"],
  ["COc1cc(C(=O)CCc2ccc3c(c2)OCO3)cc(OC)c1OC", "inactive"],
  ["Cc1csc(NC(=O)c2ccc(C)s2)n1", "inactive"],
  ["COc1cccc(C(=O)OCC(=O)c2[nH]c(C)c(C(C)=O)c2C)c1", "inactive"],
  ["Cc1ccc(S(=O)(=O)Nc2ccc(F)c(S(=O)(=O)N3CCOCC3)c2)cc1", "inactive"],
  ["O=C(NN=Cc1ccccc1)c1ccccc1", "inactive"],
  ["O=C(O)c1ccc([N+](=O)[O-])cc1Sc1ccsc1", "inactive"],
  ["CCCn1c(C)cc(C(=O)COC(=O)c2c(C)nn(-c3ccccc3)c2C)c1C", "active"],
  ["O=c1ccc2c(-c3ccccc3S(=O)(=O)O)c3ccc(O)c(O)c3oc-2c1O", "inactive"],
  ["CC(=O)c1c(OCC(=O)N(C)C2CCCCC2)ccc2c(C)cc(=O)oc12", "inactive"],
  ["O=C(O)c1ccc(N/N=C/c2ccc3ncccc3c2)cc1", "inactive"],
  ["Cc1nn(-c2ccccc2)c(C)c1C(=O)OCC(=O)NC(=O)NC1CCCCC1", "inactive"],
  ["Cc1cc(NC(=O)COc2ccccc2C#N)no1", "inactive"],
  ["Cc1ccsc1C(=O)NC1CCCCC1C (stereo not given)", "inactive"],
  ["COc1cc(CC(=O)Nc2nc(-c3ccc(F)c(F)c3)cs2)cc(OC)c1OC", "inactive"],
  ["Cc1ccc2cc(/C=N/Nc3ccc(C(=O)O)cc3)c(Cl)nc2c1", "active"],
  ["O=C(COC(=O)c1ccccn1)Nc1cccc2ccccc12", "inactive"],
  ["CC[C@]1(C(=O)OC)[C@H]2C(=O)N(C)C(=O)[C@H]2[C@H]2CN(C)C(=NCc3ccccc3)N21", "inactive"]
]}
